Target: ISWI (Xenopus laevis, UniProt Q9DF71)
Sequence (Q9DF71 1-1046): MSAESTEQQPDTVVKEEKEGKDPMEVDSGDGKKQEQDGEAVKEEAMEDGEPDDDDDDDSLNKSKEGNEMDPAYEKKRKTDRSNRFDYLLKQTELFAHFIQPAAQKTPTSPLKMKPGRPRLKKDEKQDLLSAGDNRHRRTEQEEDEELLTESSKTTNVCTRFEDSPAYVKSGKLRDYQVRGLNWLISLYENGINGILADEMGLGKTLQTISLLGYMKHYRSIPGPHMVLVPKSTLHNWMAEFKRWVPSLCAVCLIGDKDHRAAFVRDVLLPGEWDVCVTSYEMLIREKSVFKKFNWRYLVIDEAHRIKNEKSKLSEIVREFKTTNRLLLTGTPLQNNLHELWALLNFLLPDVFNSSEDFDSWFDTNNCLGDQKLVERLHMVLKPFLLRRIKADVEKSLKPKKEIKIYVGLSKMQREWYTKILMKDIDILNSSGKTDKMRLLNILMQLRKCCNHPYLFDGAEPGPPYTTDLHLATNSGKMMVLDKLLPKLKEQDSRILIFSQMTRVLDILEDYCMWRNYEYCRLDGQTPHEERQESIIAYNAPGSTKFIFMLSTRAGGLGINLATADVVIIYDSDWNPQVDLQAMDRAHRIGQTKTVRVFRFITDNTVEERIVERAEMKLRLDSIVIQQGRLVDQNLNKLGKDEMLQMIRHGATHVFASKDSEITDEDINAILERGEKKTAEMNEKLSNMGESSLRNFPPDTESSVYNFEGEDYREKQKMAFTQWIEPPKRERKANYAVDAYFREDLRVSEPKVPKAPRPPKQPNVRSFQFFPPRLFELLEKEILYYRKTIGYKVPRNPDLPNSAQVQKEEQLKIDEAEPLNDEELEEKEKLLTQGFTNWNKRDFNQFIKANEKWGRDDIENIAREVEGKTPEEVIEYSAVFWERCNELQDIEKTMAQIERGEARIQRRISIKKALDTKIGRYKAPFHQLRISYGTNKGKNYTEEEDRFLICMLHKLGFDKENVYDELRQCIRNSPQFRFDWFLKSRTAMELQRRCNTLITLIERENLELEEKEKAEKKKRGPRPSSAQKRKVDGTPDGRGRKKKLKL
result type: Kd (µM)
Hi! Could you send only the number? It should be in µM, unit omitted.

Data request, read-out Kd, for `Nc1ncnc2c1ncn2[C@@H]1O[C@H](CO[P@](=O)(O)O[P@](=O)(O)O[P@@](=O)(O)S)[C@@H](O)[C@H]1O`
140
